Recorded apparent KD of K4 kissing-loop reporter for the following sequences
Tested on: K4 kissing-loop RNA reporter;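 note: bound reporter read as fluorescence of individual clusters on recovered sequencing chips by microscopy, with normalized cluster intensities fitted with a binding model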
PROTOCOL SUMMARY: apparent KD of K4 kissing-loop reporter; higher = weaker reporter binding
CONDITION SET: Eterna round: R107; input ligand: tryptophan 2.4 mM
Please respond with the number in nM and leave the unit unwritten.

Worked examples follow.
UAUUAAUAUUUUUCAGUGAUGUUAAUUGAUACCAGCCCGAAACCGGGCCCUUGGCAGCGAGUGAUGUUGGUUGUCAGCAUAAAUA [KL-XTheo-A13]	667
ACGUGUCACUGAAGGAGCGUCUACCGAAUACGAGUGAUGUUGGUAUACCACUUAUAUAGUGGACAGGUAGGUCGCAGUGAUACGU [Arg B Ex t4]	837
AGCUGUGGCAGAAGGAGCGACAGUUAUUCUGAUAGUACUCUGAGUGAUGUUCAGAACGACUGUCAGGUAGGUCGCUGUCACAGCU [#01 K4 Arginine B Exclusion]	169
AGUAGUUGGACGGCCGCCACUAGAACAGCUUUGCCAAAGGCAGAGCACUAGAGUGAUGUUCUAGCUAGGACCGGGUCCAACUACA [Omei KL Tryp B SS A v1]	1000
UUAGAGGCCCAGUGAUGUUGGGUGGUUGGGCGAGGACCGGUACGGCCGCCACUCGCCGCGGAACUAUCGGAAUCUCGCUCGGCUA [Aninxearqu]	256
UCUUAACUAAAAUAAUGGGAUACCAGUGAUACCAGCCAUAUGCAGGGCCCUUGGCAGCACCCUUGGCAGCCUCGAGUGAUGUUCG [KL-SSTheo-A7 #DoubleAptamer]	230
AUGUAUGAAUUAGGAUAUCGUUAGCCUUUCAUAUAUAUGAUAAAUGGAUAUGUCGUAGUGAUGUUACGAGAAGGAGUGUGGAGUA [KL-XFMN-B8]	30.5
CCCAAGGGCGAACCGGUAUGAUCGACGGAUACCAGAGGCGAAAGCCUCCCUUGGCAGCCGGCUGUAGUGAUGUUACACUGGUUCU	143

Record request: apparent KD of K4 kissing-loop reporter value, item GUUAUAUAAAUAAGAAAUAAAAUAAGGGAAGGAGCGCCGAGAAAGGCAGGUAGGUCGCCCAGUGAUGUUGGGAUUAAUUAAUUAG
37.1

Record request: apparent KD of K4 kissing-loop reporter value, item GGUCCGGGCUCGGCCGCCACUCCCUCGUACCGCAAGGUAUGAUACCGAGUGAUGUUCGGUUGGAGGAGGACCGGGAGCCCGGACC [#2 Exclusion - Tryptophan B Attempt #9 (HarryS)]
100

Record request: apparent KD of K4 kissing-loop reporter value, item UUUAUUAAGACGGCCGCCACUGAUUCAUAGUGAUGUUAUGAUAUAAUUUUAGUGAUGUGCAUUAGCAGGACCGGGUCAAUUAUUA [#28 K4 Tryptophan B Exclusion]
101

Record request: apparent KD of K4 kissing-loop reporter value, item AGUAGGAAACUACAAUCCUCUCUUACUGAAGGAGCGCGUGAAAACGCAGGUAGGUCGCAGGAUUUGAGAGUGAUGUUCUCAUUAA [Ex Arginine A K4 16]
174
